experiment: in vitro CaCo2 permeability; format: in vitro ADME; conditions: human, Caco-2

molecule: COc1ccc(CN2CCN(CCOC(=O)c3cccnc3)CC2)c(OC)c1OC
Papp: ~29 ×10⁻⁶ cm/s

* * *

Experiment: 28-day dog study (nonclinical toxicology, NOAEL)
Type: in vivo
Conditions: in vivo; 28-day dog, oral; read-out: no observed adverse effect level (NOAEL)
Experimental: Based on the nonclinical toxicology data, it was considered that subjects in this clinical study were not at unreasonable risk of adverse effects. […] For a 60-kg individual, the NOAEL dose would be 6480 mg. With a 10-fold safety factor applied, this would allow for a maximum recommended starting dose (MRSD) of 648 mg/day. […] This starting dose is less than 10% of the MRSD determined from the dog NOAEL and less than 1% of the dog NOAEL […]

molecule: COc1ccc(CN2CCN(CCOC(=O)c3cccnc3)CC2)c(OC)c1OC [CV-8972]
NOAEL at 28 days / mg/kg/day: 200
